Item-by-item account of TGI
- Test system: HT29 colon
- Experimental Details: NCI tumour cell line growth inhibition, 48 h
Where a SMILES comes first, the peptide text is derived from it. The star is where a group is joined. OSu = O=C1CCC(=O)N1O*
Measured Metric: TGI

compound="C#C[C@]1(O)CC[C@H]2[C@@H]3CCC4=C/C(=N/OC(=O)c5cccc6c(=O)c7ccccc7[nH]c56)CCC4[C@H]3CC[C@@]21CC (some centres not stated)" target_system="HT29 colon" measured_metric=TGI result="> 50.7 µM"
compound=Cc1cc(N(CCC#N)CCC#N)ccc1/C(N=Nc1ccc([N+](=O)[O-])cc1)=N\NC(=O)c1ccccc1 target_system="HT29 colon" measured_metric=TGI result="71.4 µM"
compound=COC(=O)CC(=O)NCC1=CCC(=O)CC1 target_system="HT29 colon" measured_metric=TGI result="> 100 µM"
compound=C/C(O)=C(\N=O)C(=O)NCc1ccccc1 target_system="HT29 colon" measured_metric=TGI result="> 100 µM"
compound="CCOC(=O)C1(C(=O)OCC)C=C(c2ccccc2)N(C2OC(COC(C)=O)C(OC(C)=O)C(OC(C)=O)C2OC(C)=O)C1=S (configuration not stated)" target_system="HT29 colon" measured_metric=TGI result="> 100 µM"
compound="CC(=O)OC1C(O[C@H]2CC[C@]34O[C@]35CC[C@]3(C)C(C6(C)CC[C@@H](C(C)(C)O)O6)[C@@H](O)CC3(C)[C@@H]5CC(OC3OC(CO)C(O)C(O)C3O)C4C2(C)C)OCC(O)C1O (some centres not stated)" target_system="HT29 colon" measured_metric=TGI result="> 100 µM"
compound=CCOC(=O)/C=C(/C(=O)OCC)n1ccc(=O)n(Cc2cnnn2CCCCOC(C)=O)c1=O target_system="HT29 colon" measured_metric=TGI result="> 100 µM"
compound="CCC(C)(O)c1cn(-c2ccc(S(=O)(=O)O)cc2)nn1 (configuration not stated)" target_system="HT29 colon" measured_metric=TGI result="> 100 µM"
compound=CC(C)C(=S)N(C)O target_system="HT29 colon" measured_metric=TGI result="13.2 µM"
compound=CC(C)=C[C@@H]1O[C@H](O)[C@@H]([C@H]2CC[C@@]3(C)[C@@H]4CC[C@H]5C(C)(C)C(=O)CC[C@@]56C[C@@]46CC[C@]23C)[C@@H]1O target_system="HT29 colon" measured_metric=TGI result="24.1 µM"
compound=O=C(NC1(C(=O)O)CCCC1)c1ccccc1 target_system="HT29 colon" measured_metric=TGI result="> 100 µM"
compound=O=C(NCc1ccc2ccc3cccnc3c2n1)c1ccc[n+](Cc2ccccc2)c1 target_system="HT29 colon" measured_metric=TGI result="> 100 µM"
compound=COc1ccc(/C=C/C(=O)Oc2ccccc2OC)cc1 target_system="HT29 colon" measured_metric=TGI result="> 59 µM"
compound=Cc1cc2nnc(C(N)=O)c(N)c2cc1C target_system="HT29 colon" measured_metric=TGI result="> 100 µM"
compound="CC(C)=C1CCC(CN2CCOCC2)C1=O (configuration not stated)" target_system="HT29 colon" measured_metric=TGI result="20.4 µM"
compound=COC(=O)/C(=C/c1ccc(OC)cc1)C(C(=O)O)=C1CCCCC1 target_system="HT29 colon" measured_metric=TGI result="> 100 µM"
compound="COc1cc(C2c3cc4c(cc3[C@@H](N(C)c3ccc(N(C)C)cc3)C3COC(=O)C23)OCO4)cc(OC)c1O (some centres not stated)" target_system="HT29 colon" measured_metric=TGI result="2.62 µM"
compound=CC(=O)NC1=C(N)C(=O)c2ccccc2C1=O target_system="HT29 colon" measured_metric=TGI result="> 100 µM"
compound=Cc1cn2c(/C=N/N=C(N)N)c(-c3ccncc3)nc2s1 target_system="HT29 colon" measured_metric=TGI result="46.8 µM"
compound=O=C1/C(=C/c2ccccc2)CCCc2ccccc21 target_system="HT29 colon" measured_metric=TGI result="36 µM"
compound=CCOc1ccc(C(C)=O)cc1NC(=O)c1cccc(-c2nnn(CC)n2)c1 target_system="HT29 colon" measured_metric=TGI result="> 100 µM"
compound="NCCCCC(NC(=O)C(N)Cc1ccc(O)cc1)C(=O)NC(Cc1ccc(O)cc1)C(=O)NC(CCCCN)C(=O)ON1C(=O)CCC1=O (configuration not stated) (H-YKYK-OSu; configuration not given here)" target_system="HT29 colon" measured_metric=TGI result="> 100 µM"
